# Experiment: Rat serum assay (release of NRB or NRB analogue)
# Type: in vitro ADME
# Reported conditions: 80% rat serum, 37° C., 3 h, n = 3
Measurement kind: % NRB released, Rat Serum (%)

1. O=C(CCCCCCC(=O)OCCN1C(=O)C2C3C=C(C(O)(c4ccccc4)c4ccccn4)C(C3=C(c3ccccc3)c3ccccn3)C2C1=O)OCCN1C(=O)C2C3C=C(C(O)(c4ccccc4)c4ccccn4)C(C3=C(c3ccccc3)c3ccccn3)C2C1=O (stereo not drawn): 9.9
2. O=C(CCC(=O)OCN1C(=O)C2C3C=C(C(O)(c4ccccc4)c4ccccn4)C(C3=C(c3ccccc3)c3ccccn3)C2C1=O)OCCOC(=O)CCC(=O)OCN1C(=O)C2C3C=C(C(O)(c4ccccc4)c4ccccn4)C(C3=C(c3ccccc3)c3ccccn3)C2C1=O (stereo not drawn): 20.8
3. O=C(OCCN1C(=O)C2C3C=C(C(O)(c4ccccc4)c4ccccn4)C(C3=C(c3ccccc3)c3ccccn3)C2C1=O)c1ccc(C(=O)OCCN2C(=O)C3C4C=C(C(O)(c5ccccc5)c5ccccn5)C(C4=C(c4ccccc4)c4ccccn4)C3C2=O)cc1 (stereo not drawn): 27.5
4. O=C(CCC(=O)OCCN1C(=O)C2C3C=C(C(O)(c4ccccc4)c4ccccn4)C(C3=C(c3ccccc3)c3ccccn3)C2C1=O)OCCOC(=O)CCC(=O)OCCN1C(=O)C2C3C=C(C(O)(c4ccccc4)c4ccccn4)C(C3=C(c3ccccc3)c3ccccn3)C2C1=O (stereo not drawn): 14.5
5. CC(=Cc1ccccc1)C(=O)OCCN1C(=O)C2C3C=C(C(O)(c4ccccc4)c4ccccn4)C(C3=C(c3ccccc3)c3ccccn3)C2C1=O (stereo not drawn): 19.1
6. O=C(CCCCC(=O)OCN1C(=O)C2C3C=C(C(O)(c4ccccc4)c4ccccn4)C(C3=C(c3ccccc3)c3ccccn3)C2C1=O)OCN1C(=O)C2C3C=C(C(O)(c4ccccc4)c4ccccn4)C(C3=C(c3ccccc3)c3ccccn3)C2C1=O (stereo not drawn): 13.4
7. O=C(OCN1C(=O)C2C3C=C(C(O)(c4ccccc4)c4ccccn4)C(C3=C(c3ccccc3)c3ccccn3)C2C1=O)c1ccc2ccccc2c1 (stereo not drawn): 31.3
8. O=C(CCCCCCCCC(=O)OCN1C(=O)C2C3C=C(C(O)(c4ccccc4)c4ccccn4)C(C3=C(c3ccccc3)c3ccccn3)C2C1=O)OCN1C(=O)C2C3C=C(C(O)(c4ccccc4)c4ccccn4)C(C3=C(c3ccccc3)c3ccccn3)C2C1=O (stereo not drawn): 8.6
9. O=C(C=Cc1ccccc1)OCCN1C(=O)C2C3C=C(C(O)(c4ccccc4)c4ccccn4)C(C3=C(c3ccccc3)c3ccccn3)C2C1=O (stereo not drawn): 14.1
10. O=C(CCC(=O)OCN1C(=O)C2C3C=C(C(O)(c4ccccc4)c4ccccn4)C(C3=C(c3ccccc3)c3ccccn3)C2C1=O)OCN1C(=O)C2C3C=C(C(O)(c4ccccc4)c4ccccn4)C(C3=C(c3ccccc3)c3ccccn3)C2C1=O (stereo not drawn): 29.6
11. O=C(C=Cc1ccccc1)OCCCCN1C(=O)C2C3C=C(C(O)(c4ccccc4)c4ccccn4)C(C3=C(c3ccccc3)c3ccccn3)C2C1=O (stereo not drawn): 81.0
12. O=C(OCCN1C(=O)C2C3C=C(C(O)(c4ccccc4)c4ccccn4)C(C3=C(c3ccccc3)c3ccccn3)C2C1=O)c1ccc2ccccc2c1 (stereo not drawn): 14.4
13. O=C(CCC(=O)OCCN1C(=O)C2C3C=C(C(O)(c4ccccc4)c4ccccn4)C(C3=C(c3ccccc3)c3ccccn3)C2C1=O)OCCN1C(=O)C2C3C=C(C(O)(c4ccccc4)c4ccccn4)C(C3=C(c3ccccc3)c3ccccn3)C2C1=O (stereo not drawn): 7.7
14. CCCCCCCC(=O)OCCN1C(=O)C2C3C=C(C(O)(c4ccccc4)c4ccccn4)C(C3=C(c3ccccc3)c3ccccn3)C2C1=O (stereo not drawn): 87.9
15. CCCCCCCCCCCC(=O)OCCN1C(=O)C2C3C=C(C(O)(c4ccccc4)c4ccccn4)C(C3=C(c3ccccc3)c3ccccn3)C2C1=O (stereo not drawn): 19.3
